Origin of values: ChEMBL document CHEMBL4834429

# Lookup of reported Emax keyed by entry
# Study Target: Melanocyte-stimulating hormone receptor (Mus musculus)
# Assay: Agonist activity at mouse melanocortin receptor 1 expressed in HEK293 cells assessed as stimulation of intracellular cAMP accumulation at 10 uM incubated for 24 hrs by beta-galactosidase reporter gene assay relative to control
# Type: functional, cell-based
# Condition Description: filed as agonist

CCC[C@@H]1CN([C@H](CC2CCCCC2)CN2CCC[C@H]2CN2C(=N)NC[C@H]2C(C)C)C(=N)N1CC1CCC(C(C)(C)C)CC1 (stereo partly drawn) ... 51%
CCC[C@@H]1CN([C@H](CC2CCCCC2)CN2CCC[C@H]2CN2C(=N)NC[C@H]2C(C)C)C(=N)N1CCCC(C)C ... 51%

Please turn your attention to the following entry.
State the recorded Emax for this entry: `CC(C)CCCN1C(=N)N([C@H](CC2CCCCC2)CN2CCC[C@H]2CN2C(=N)NC[C@H]2CC(C)C)C[C@H]1C(C)C` 50%

###

# Study Target: Melanocyte-stimulating hormone receptor (Mus musculus) (UniProt Q01727)
# Sequence (Q01727 whole entry, looked up): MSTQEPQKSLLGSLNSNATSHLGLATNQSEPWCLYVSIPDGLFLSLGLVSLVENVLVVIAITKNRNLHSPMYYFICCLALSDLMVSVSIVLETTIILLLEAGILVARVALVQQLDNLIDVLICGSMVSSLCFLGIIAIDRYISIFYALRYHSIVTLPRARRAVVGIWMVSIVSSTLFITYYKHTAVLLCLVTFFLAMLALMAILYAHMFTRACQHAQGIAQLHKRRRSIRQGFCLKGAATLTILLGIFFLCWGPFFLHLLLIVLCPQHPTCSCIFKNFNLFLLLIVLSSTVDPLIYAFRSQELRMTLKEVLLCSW
# Assay: Agonist activity at mouse melanocortin receptor 1 expressed in HEK293 cells assessed as stimulation of intracellular cAMP accumulation at 10 uM incubated for 24 hrs by beta-galactosidase reporter gene assay relative to control
# Format: functional, cell-based
# Condition Description: filed as agonist
# Emax listing for each entry below
I only need the number, in %, no unit after it.

CC(C)CCCN1C(=N)N([C@H](Cc2ccccc2)CN2CCC[C@H]2CN2C(=N)NC[C@H]2CC(C)C)C[C@H]1[C@@H](C)O ... 62
CCC[C@@H]1CN([C@H](CC2CCCCC2)CN2CCC[C@H]2CN2C(=N)NC[C@H]2CC(C)C)C(=N)N1CC12CC3CC(CC(C3)C1)C2 ... 70
CC(C)C[C@@H]1CNC(=N)N1C[C@@H]1CCCN1C[C@@H](Cc1ccccc1)N1C[C@@H]([C@@H](C)O)N(CC2CCC(C(C)(C)C)CC2)C1=N (stereo partly specified) ... 58
CC(C)C[C@@H]1CNC(=N)N1C[C@@H]1CCCN1C[C@@H](CC1CCCCC1)N1C[C@@H](C(C)C)N(CC2CCC(C(C)(C)C)CC2)C1=N (stereo partly specified) ... 54
CC(C)C[C@@H]1CNC(=N)N1C[C@@H]1CCCN1C[C@@H](Cc1ccccc1)N1C[C@@H]([C@@H](C)O)N(CC23CC4CC(CC(C4)C2)C3)C1=N ... 41

Please look at the following compound next.
What Emax appears in the records for this compound with Melanocyte-stimulating hormone receptor (Mus musculus) (UniProt Q01727)? `CC(C)CCCN1C(=N)N([C@H](Cc2ccccc2)CN2CCC[C@H]2CN2C(=N)NC[C@H]2C(C)C)C[C@H]1[C@@H](C)O` 51

###

# Study Target: Melanocortin receptor 3 (Mus musculus) (UniProt P33033)
# Sequence (P33033 whole entry): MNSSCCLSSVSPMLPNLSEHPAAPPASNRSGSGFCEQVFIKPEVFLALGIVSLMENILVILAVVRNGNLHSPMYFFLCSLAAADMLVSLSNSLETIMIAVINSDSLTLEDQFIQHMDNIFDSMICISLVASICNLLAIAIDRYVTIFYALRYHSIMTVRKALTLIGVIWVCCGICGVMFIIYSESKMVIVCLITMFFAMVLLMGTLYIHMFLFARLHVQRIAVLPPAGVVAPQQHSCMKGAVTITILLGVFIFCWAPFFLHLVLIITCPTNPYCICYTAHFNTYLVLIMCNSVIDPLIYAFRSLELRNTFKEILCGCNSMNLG
# Assay: Agonist activity at mouse melanocortin receptor 3 expressed in HEK293 cells assessed as stimulation of intracellular cAMP accumulation at 10 uM incubated for 24 hrs by beta-galactosidase reporter gene assay relative to control
# Type: functional, cell-based
# Condition Description: filed as agonist
# Emax listing for each entry below
Write the numeric value and follow it with the unit.

CCC[C@@H]1CN([C@H](CC2CCCCC2)CN2CCC[C@H]2CN2C(=N)NC[C@H]2CC(C)C)C(=N)N1CC1CCC(C(C)(C)C)CC1 (stereo partly drawn) ... 75%
CC(C)C[C@@H]1CNC(=N)N1C[C@@H]1CCCN1C[C@@H](Cc1ccccc1)N1C[C@@H](C(C)C)N(CC2CCC(C(C)(C)C)CC2)C1=N (stereo partly drawn) ... 62%

Give Melanocortin receptor 3 (Mus musculus) (UniProt P33033) Emax for `CCC[C@@H]1CN([C@H](CC2CCCCC2)CN2CCC[C@H]2CN2C(=N)NC[C@H]2CC(C)C)C(=N)N1CC12CC3CC(CC(C3)C1)C2` 67%
